- Test Name: Antiproliferative activity against human WM266.4 cells harboring BRAF V600E mutant assessed as cell growth inhibition after 24 hrs by MTT assay
- Type: functional, cell-based
- Run Conditions: WM 266-4, 24 h
Property Name: pIC50
Lab note — pIC50 values are minus log10 of concentrations in M.

Consider the reported pIC50 for these compounds:
What measured pIC50 goes with O=c1oc2ccccc2c(N2CCN(c3cccc(Cl)c3Cl)CC2)c1CO ? 5.18

Would you kindly repeat that for COc1ccc(N2CCN(c3c(CO)c(=O)oc4ccccc34)CC2)cc1 ? 5.25

Try this compound next: O=c1oc2ccccc2c(N2CCN(C(c3ccccc3)c3ccc(Cl)cc3)CC2)c1CO (stereo not given) 5.56

Would you mind doing O=c1oc2ccccc2c(N2CCN(c3ccc(F)cc3)CC2)c1CO as well? 4.63

***
Which measured pIC50 value corresponds to O=c1oc2ccccc2c(N2CCN(C(c3ccccc3)c3ccccc3)CC2)c1CO ? 5.87

And O=c1oc2ccccc2c(N2CCN(c3ccc(Cl)c(Cl)c3)CC2)c1CO ? 5.22

// next record O=c1oc2ccccc2c(N2CCN(C(c3ccc(F)cc3)c3ccc(F)cc3)CC2)c1CO 5.59

Entry to check: O=c1oc2ccccc2c(N2CCN(c3ccccc3F)CC2)c1CO 4.42

// repeat for CCCS(=O)(=O)Nc1ccc(F)c(C(=O)c2c[nH]c3ncc(-c4ccc(Cl)cc4)cc23)c1F and report 7.15

---

- System: Serine/threonine-protein kinase B-raf (Homo sapiens, UniProt P15056, V600E)
- Sequence (P15056 2-766 V600E limits assumed): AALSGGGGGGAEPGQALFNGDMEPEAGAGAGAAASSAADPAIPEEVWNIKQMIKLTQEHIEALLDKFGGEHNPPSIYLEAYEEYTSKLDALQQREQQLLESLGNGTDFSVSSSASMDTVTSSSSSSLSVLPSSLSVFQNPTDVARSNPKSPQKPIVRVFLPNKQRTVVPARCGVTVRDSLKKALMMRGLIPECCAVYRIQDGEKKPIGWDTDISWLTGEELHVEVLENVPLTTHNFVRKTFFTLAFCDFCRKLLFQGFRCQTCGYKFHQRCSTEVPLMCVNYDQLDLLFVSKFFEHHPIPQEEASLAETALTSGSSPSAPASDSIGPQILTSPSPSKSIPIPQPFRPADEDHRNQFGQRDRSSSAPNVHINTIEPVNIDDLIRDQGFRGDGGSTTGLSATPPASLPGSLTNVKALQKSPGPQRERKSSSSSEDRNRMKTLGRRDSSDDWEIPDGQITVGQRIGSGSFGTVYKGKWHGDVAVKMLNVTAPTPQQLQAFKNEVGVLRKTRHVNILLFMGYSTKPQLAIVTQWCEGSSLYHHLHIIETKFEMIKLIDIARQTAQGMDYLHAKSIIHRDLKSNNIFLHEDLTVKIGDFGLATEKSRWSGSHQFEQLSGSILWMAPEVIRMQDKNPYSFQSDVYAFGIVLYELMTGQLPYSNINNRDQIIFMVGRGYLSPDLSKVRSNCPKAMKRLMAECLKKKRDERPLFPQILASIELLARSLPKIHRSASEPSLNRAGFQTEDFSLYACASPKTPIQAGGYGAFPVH
- Test Name: Inhibition of human recombinant GST-tagged BRAF catalytic domain (416 to 766 residues) V600E mutant expressed in baculovirus expression system preincubated for 1 hr followed by human full length recombinant N-terminal His-tagged MEK1 substrate addition measured after 25 mins by gel electrophoresis method
Property Name: pIC50
// pIC50: -log10(molar conc.)

Form field: reported pIC50 of O=c1oc2ccccc2c(N2CCN(C(c3ccccc3)c3ccccc3)CC2)c1CO 6.43

---

- System: Serine/threonine-protein kinase B-raf (Homo sapiens, UniProt P15056, V600E)
- Test Name: Inhibition of human recombinant GST-tagged BRAF catalytic domain (416 to 766 residues) V600E mutant expressed in baculovirus expression system preincubated for 1 hr followed by human full length recombinant N-terminal His-tagged MEK1 substrate addition measured after 25 mins by gel electrophoresis method
So basically, if IC50 comes in under 3 µM it's Condition met, and if it's 3 µM or more it's Condition not met.

See these solved cases before continuing.
Is it true that IC50 reported for O=c1oc2ccccc2c(N2CCN(C(c3ccccc3)c3ccc(Cl)cc3)CC2)c1CO (stereo not drawn) is less than 3 µM? Condition met

Now consider CCN1CCN(c2c(CO)c(=O)oc3ccccc23)CC1 . Condition not met

Please give the result for O=c1oc2ccccc2c(N2CCN(c3ccccc3F)CC2)c1CO too. Condition not met

// next record O=c1oc2ccccc2c(N2CCN(C(c3ccc(F)cc3)c3ccc(F)cc3)CC2)c1CO Condition met

Request: O=c1oc2ccccc2c(N2CCN(c3ccc(F)cc3)CC2)c1CO Condition not met

Same thing, different compound: COc1cccc(N2CCN(c3c(CO)c(=O)oc4ccccc34)CC2)c1 Condition met

// next record COc1ccccc1N1CCN(c2c(CO)c(=O)oc3ccccc23)CC1 Condition not met

What would you report for COc1ccc(N2CCN(c3c(CO)c(=O)oc4ccccc34)CC2)cc1 ? Condition met

Try O=c1oc2ccccc2c(N2CCN(c3ccc(Cl)c(Cl)c3)CC2)c1CO next. Condition met

Same again, this time with O=c1oc2ccccc2c(N2CCN(c3cccc(Cl)c3)CC2)c1CO Condition not met

New cases:
Would you kindly verify if IC50 of O=c1oc2ccccc2c(N2CCN(c3cccc(Cl)c3Cl)CC2)c1CO is strictly less than 3 µM? Condition not met

Can you handle O=c1oc2ccccc2c(N2CCN(c3cccc(C(F)(F)F)c3)CC2)c1CO next? Condition not met

Now consider O=c1oc2ccccc2c(N2CCN(c3ccccc3)CC2)c1CO and answer again. Condition not met
